test: Therapeutic index, ratio of IC50 for human MRC5 cells to IC50 for human SK-N-MC cells; format: cell-based; details: MRC5 cells and SK-N-MC cells, read-out: Ratio IC50
Experimental endpoint: selectivity ratio
Please reply with the value in numeric form only.

The cases that follow already have their selectivity ratio on record.
Q: Would you kindly share the measured selectivity ratio for CCNC(=S)N/N=C(\c1ccccc1)c1ccccn1 ?
Result: 64

Q: # get_value(readout='selectivity ratio', item= CN(C)C(=S)N/N=C(\c1ccccc1)c1ccccn1 )
Result: 116

Turning to the following molecule.
Q: Please look up its selectivity ratio: CNC(=S)N/N=C(\c1ccccc1)c1ccccn1
Result: 96
